Measured log10 of CC50 at 96 h accompanies every entry in the list below.
Test: Cytotoxicity against Homo sapiens (human) MT4 cells after 4 days by MTT assay
Format: cell-based
All values: base-10 log of CC50 at 96 h in µg/mL.

Query: Record request: log10 of CC50 at 96 h value, item COc1cc(/C=N/NC(=O)COc2cccc3ccccc23)cc(OC)c1OC
Result: 1.13

Query: Look up log10 of CC50 at 96 h: C/C(=N\NC(=O)COc1cccc2ccccc12)c1ccc(O)cc1
Result: 1.84

Query: Bench note: what log10 of CC50 at 96 h did C/C(=N\NC(=O)COc1cccc2ccccc12)c1ccc(C#N)cc1Br show?
Result: 1.08

Query: // returns reported log10 of CC50 at 96 h for input C/C(=N\NC(=O)COc1cccc2ccccc12)c1ccccc1O
Result: 1.05

Query: Which value of log10 of CC50 at 96 h has been reported for CSc1ccc(/C=N/NC(=O)COc2cccc3ccccc23)cc1 in the records?
Result: 1.83

Turning now to a further record.
Query: // lookup log10 of CC50 at 96 h for O=C(COc1cccc2ccccc12)N/N=C/c1c(O)ccc2ccccc12
Result: 0.33
